The entries below come with measured GI50 values attached.
- Test system: UO-31
- Test Protocol: NCI tumour cell line growth inhibition, 48 h
The source made the active and inactive calls. Cut-off read from the data, not from the text of the source: active = GI50 up to about 1.1 µM and inactive = higher.

Compound	Experimental Value
COc1c(CC(C)=O)ccc2c1C(=O)c1ccc(C=O)c(OC(C)=O)c1C2=O	20.4 µM (inactive)
CN(CCNC(=O)c1cn(C)c2c1ccc1cc(Cl)c(Cl)cc12)CCNC(=O)c1cn(C)c2c1ccc1cc(Cl)c(Cl)cc12	1.72 µM (inactive)
O=C1/C(=C/c2ccc(O)cc2)CCC1CNc1ccccc1 (centres undefined)	15.6 µM (inactive)
CCSc1nc(-c2cccs2)nc2ccc(I)cc12	> 100 µM (inactive)
CS(=O)(=O)O.[Ag]	1.78 µM (inactive)

# next compound below
// GI50 lookup, compound = CCC(C)C1NC(=O)C2CCCN2C(=O)C(CC2CO2)OC(=O)CCNC(=O)C(C)N(C)C(=O)C(C(C)C)N(C)C1=O (centres undefined) , result: 7.31 µM (inactive)

* * *

- System: PC-3
- Test Protocol: NCI tumour cell line growth inhibition, 48 h
Active and inactive are the calls of the source. Cut-off read from the data, not from the text of the source: active = GI50 up to about 1.1 µM and inactive = higher.
Select the matching outcome among true (1) for active, false (0) for inactive

Molecule	Qualitative Label
CC(O)c1cc2c(s1)C(=O)c1sccc1C2=O (stereo not given)	true (1)
COC(=O)C1C(O)C(C)C(=O)C(C)/C=C\C=C(C)C(=O)Nc2c(C)c(OC(C)=O)c3c(c2O)C(=O)C(C)=C2OCOC(=C23)C(C)=CC(C)(O)C(O)C(C)C1O (stereo not given)	false (0)
O=C1c2cc3c(cc2CC1Br)CCC3 (stereo not given)	false (0)

Challenge: Please state the recorded outcome for this molecule: COc1cc(NCc2ccc3nc(OC)c(OC)nc3c2)cc(OC)c1OC
Response given: false (0)

Challenge: Hello, I am checking results. What call was entered for COc1ccc(/C(Br)=C2\OC(=O)c3ccccc32)cc1 ?
Response given: false (0)

Challenge: Please state the recorded outcome for this molecule: CSc1c(CC(=O)O)n(Cc2ccccc2)c2ccccc12
Response given: false (0)

Challenge: Tell me the recorded outcome of this test for Nc1nc(O)c(Br)c(-c2cccc([N+](=O)[O-])c2)n1 .
Response given: false (0)

Challenge: Could you kindly confirm the outcome this assay logged for CC(=O)N(C)C(C(=O)N1CC(C)CC1C(=O)N(C)C1C(=O)NC(CC(C)C)C(=O)N2CC(C)CC2C(=O)NC(CC(C)C)C(=O)N(C)C(C(C)C)C(=O)N2CCCC2C(=O)N(C)C(CC(C)C)C(=O)NCC(=O)OC1C)C(C)C (stereo not given) ?
Response given: false (0)

Challenge: Called result for CN(C)Cc1cc(C(=O)/C=C/c2c(Cl)cccc2Cl)cc(CN(C)C)c1O
Response given: false (0)

Challenge: Record lookup: outcome of this test for CC(C)(C)[Si](C)(C)OCC1OC(n2ccc(=O)[nH]c2=O)C(O[Si](C)(C)C(C)(C)C)[C@@]12O[C@H]2C(N)=O (stereo not given in full) ?
Response given: false (0)

* * *

- System: NCI-H460
- Test Protocol: NCI tumour cell line growth inhibition, 48 h
Active and inactive are the calls of the source. No stated cut-off is given here; in the data, active = GI50 up to about 1.1 µM and inactive = higher.
Let's look at some molecules and their measured GI50.

Given the molecule O=C1CCCC2=C1CC1=C(CCCC1=O)N2c1ccccc1 and test system NCI-H460, the measured GI50 is > 100 µM (inactive)

Record CC(C)(C)NC(=O)C12C3C4C1C1C2C3C41C(=O)NC(C)(C)C (centres undefined) has NCI-H460 GI50 equal to > 100 µM (inactive)

Measured on NCI-H460, N[C@H](C(=O)O)[C@@H]1CC(Cl)=NO1 [ACIVICIN] has a documented GI50 of 0.452 µM (active)

Form field, GI50 with NCI-H460, item OC[C@H]1O[C@@H](n2cnc3cncnc32)[C@H](O)[C@@H]1O [NEBULARINE] : 0.593 µM (active)

GI50 value, target or system NCI-H460, for O=C1OC2C(O)C(=O)OC2C1O (centres undefined) : > 100 µM (inactive)

NCI-H460 assay, molecule CC(O)c1cc2c(s1)C(=O)c1sccc1C2=O (centres undefined) , recorded GI50 = 0.127 µM (active)

Let me check: CC(=O)/C=C1\Nc2ccc([N+](=O)[O-])cc2N\C1=C/C(C)=O , system NCI-H460, measured GI50 is 21.5 µM (inactive)

Ref: ChEMBL document CHEMBL1201862
